- Test target: CCNE1 (Homo sapiens)
- Construct: host or cells: HEK293-CCNE1-Hibit
- Sequence (P24864 whole entry): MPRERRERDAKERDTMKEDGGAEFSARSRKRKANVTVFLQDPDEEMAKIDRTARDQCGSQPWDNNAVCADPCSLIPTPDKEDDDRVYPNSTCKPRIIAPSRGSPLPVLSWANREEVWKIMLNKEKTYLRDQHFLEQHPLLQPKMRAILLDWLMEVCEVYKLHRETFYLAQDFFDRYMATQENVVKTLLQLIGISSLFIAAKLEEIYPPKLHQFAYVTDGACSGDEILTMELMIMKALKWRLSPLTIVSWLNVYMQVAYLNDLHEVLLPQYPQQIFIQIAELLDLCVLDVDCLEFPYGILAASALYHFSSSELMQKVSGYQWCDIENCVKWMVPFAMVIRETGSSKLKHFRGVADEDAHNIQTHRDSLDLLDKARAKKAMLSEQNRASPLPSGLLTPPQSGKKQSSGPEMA
- Experiment: HiBit Assay Protocol for CCNE1 (HIBIT protein quantification, degradation)
- Type: cell-based
- Run parameters: HEK293-CCNE1-Hibit cells, compound treatment for 6 hours
Some compounds, each annotated with its measured CCNE1 HIBIT Protein Quantification Maximum.
Unit % implied. Number only.

Completed entries (count: 4):
Compound	Test target	Endpoint result
CC1CCCC1N1C(=O)C2(CC2)c2cnc(NC3CCN(S(=O)(=O)N4CC5(CN(C(=O)CCc6cccc7c6n(C)c(=O)n7C6CCC(=O)NC6=O)C5)C4)CC3)nc21 (centres unmarked)	CCNE1 (Homo sapiens)	26
CC1CCCC1N1C(=O)C2(CC2)c2cnc(NC3CCN(S(=O)(=O)C4CCN(C(=O)CCCCCc5cccc6c5n(C)c(=O)n6C5CCC(=O)NC5=O)C4)CC3)nc21 (centres unmarked)	CCNE1 (Homo sapiens)	30.9
CC1CCCC1N1C(=O)C2(CC2)c2cnc(NC3CCN(S(=O)(=O)N4CC5CN(C(=O)CCCCCCCc6cccc7c6n(C)c(=O)n7C6CCC(=O)NC6=O)CC54)CC3)nc21 (centres unmarked)	CCNE1 (Homo sapiens)	21.9
CC1CCCC1N1C(=O)C2(CC2)c2cnc(NC3CCN(S(=O)(=O)N4CC5(CCCN(CCOc6cccc7c6n(C)c(=O)n7C6CCC(=O)NC6=O)C5)C4)CC3)nc21 (centres unmarked)	CCNE1 (Homo sapiens)	14

// lookup CCNE1 HIBIT Protein Quantification Maximum for CC1CCCC1N1C(=O)C2(CC2)c2cnc(NC3CCN(S(=O)(=O)C4CCN(C(=O)CCCCCCCc5ccc6c(c5)n(C)c(=O)n6C5CCC(=O)NC5=O)C4)CC3)nc21 (centres unmarked)
47

* * *

Some molecules, each annotated with its measured Dmax.
- Test target: CDK9 (Homo sapiens, UniProt P50750)
- Construct: host or cells: HEK293-CDK9-Hibit
- Sequence (P50750 whole entry): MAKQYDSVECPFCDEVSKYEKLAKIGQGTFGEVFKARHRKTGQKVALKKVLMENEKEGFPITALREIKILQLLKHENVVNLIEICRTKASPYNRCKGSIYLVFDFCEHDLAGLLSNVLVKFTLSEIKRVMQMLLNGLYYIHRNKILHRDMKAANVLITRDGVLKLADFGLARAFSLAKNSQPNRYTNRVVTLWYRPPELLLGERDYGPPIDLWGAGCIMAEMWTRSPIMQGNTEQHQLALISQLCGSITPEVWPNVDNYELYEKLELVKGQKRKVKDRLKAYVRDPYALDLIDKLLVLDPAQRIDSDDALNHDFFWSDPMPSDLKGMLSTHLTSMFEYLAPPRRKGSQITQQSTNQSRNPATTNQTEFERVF
- Experiment: HiBit Assay Protocol for CDK9 (HIBIT protein quantification, degradation)
- Assay type: cell-based
- Run parameters: 6 h, HEK293-CDK9-Hibit cells, compound treatment for 6 hours; read-out: CDK9 HIBIT Protein Quantification Maximum
Unit % implied. Number only.

Molecule	Dmax (%)
CC1CCCC1N1C(=O)C2(CC2)c2cnc(NC3CCN(S(=O)(=O)N4CC5(CCN(C(=O)CCCc6ccc7c(c6)n(C)c(=O)n7C6CCC(=O)NC6=O)CC5)C4)CC3)nc21 (centres unmarked)	6

// lookup Dmax for Cn1c(=O)n(C2CCC(=O)NC2=O)c2cccc(-c3ccc(Oc4cccc(S(=O)(=O)N5CCC(Nc6ncc7c(n6)N([C@@H]6CCC[C@@H](O)C6)C(=O)C76CC6)CC5)c4)cc3)c21 (some centres unmarked)
45

// repeat for `C[C@H](c1cccc(S(=O)(=O)N2CCC(Nc3ncc4c(n3)N([C@@H]3CCC[C@@H](O)C3)C(=O)C43CC3)CC2)c1)N1CCC(c2ccc3c(N4CCC(=O)NC4=O)nn(C)c3c2)CC1` and report
3

// repeat for CC1CCCC1N1C(=O)C2(CC2)c2cnc(NC3CCN(S(=O)(=O)C4CCCN(C(=O)CCCCc5ccc6c(c5)n(C)c(=O)n6C5CCC(=O)NC5=O)C4)CC3)nc21 (centres unmarked) and report
7

// repeat for Cn1nc(N2CCC(=O)NC2=O)c2ccc(C3CCN(Cc4cccc(S(=O)(=O)N5CCC(Nc6ncc7c(n6)N([C@@H]6CCC[C@@H](O)C6)C(=O)C76CC6)CC5)c4)C(C)(C)C3)cc21 (some centres unmarked) and report
24

* * *

Some compounds, each annotated with its measured CDK2 HIBIT Protein Quantification Maximum.
- Test target: CDK2 (Homo sapiens, UniProt P24941)
- Construct: host or cells: HEK293-CDK2-Hibit
- Experiment: HiBit Assay Protocol for CDK2 (HIBIT protein quantification, degradation)
- Type: cell-based
- Run parameters: HEK293-CDK2-Hibit cells, compound treatment for 6 hours
Unit % implied. Number only.

Compound	Endpoint result
CC1CCCC1N1C(=O)C2(CC2)c2cnc(NC3CCN(S(=O)(=O)N4CC5(CN(CC6CCN(c7ccc8c(c7)n(C)c(=O)n8C7CCC(=O)NC7=O)CC6)C5)C4)CC3)nc21 (stereo not shown)	75

// lookup CDK2 HIBIT Protein Quantification Maximum for CN(CCCN1CCC(c2cccc3c2n(C)c(=O)n3C2CCC(=O)NC2=O)CC1)S(=O)(=O)c1ccc(Nc2ncc3c(n2)N([C@@H]2CCC[C@@H](O)C2)C(=O)C32CC2)cc1 (stereo partly shown)
86

// repeat for `Cn1nc(N2CCC(=O)NC2=O)c2ccc(C3CCN(Cc4cccc(S(=O)(=O)N5CCC(Nc6ncc7c(n6)N([C@@H]6CCC[C@@H](O)C6)C(=O)C76CC6)CC5)c4)CC3)c(F)c21` and report
78

// repeat for `C[C@@H]1CN(S(=O)(=O)c2cccc(CN3CCC(c4ccc5c(N6CCC(=O)NC6=O)nn(C)c5c4)CC3)c2)CC[C@H]1Nc1ncc2c(n1)N([C@@H]1CCC[C@@H](O)C1)C(=O)C21CC1` and report
64

// repeat for CC1CCCC1N1C(=O)C2(CC2)c2cnc(NC3CCN(S(=O)(=O)N4CCCC45CCN(C(=O)CCCc4ccc6c(c4)n(C)c(=O)n6C4CCC(=O)NC4=O)C5)CC3)nc21 (stereo not shown) and report
15

// repeat for CC1CCCC1N1C(=O)C2(CC2)c2cnc(NC3CCN(S(=O)(=O)N4CC(N(C)C(=O)CCCCCc5cccc6c5n(C)c(=O)n6C5CCC(=O)NC5=O)C4)CC3)nc21 (stereo not shown) and report
72

// repeat for CC1CCCC1N1C(=O)C2(CC2)c2cnc(NC3CCN(S(=O)(=O)N4CC5(CN(C(=O)CCc6cccc7c6n(C)c(=O)n7C6CCC(=O)NC6=O)C5)C4)CC3)nc21 (stereo not shown) and report
19

// repeat for CC1CCCC1N1C(=O)C2(CC2)c2cnc(NC3CCN(S(=O)(=O)N4CC5CN(C(=O)CCc6cccc7c6n(C)c(=O)n7C6CCC(=O)NC6=O)CC5C4)CC3)nc21 (stereo not shown) and report
49

// repeat for O=C1CCC(N2Cc3cc(CN4CC(Oc5cccc(S(=O)(=O)N6CCC(Nc7ncc8c(n7)N([C@@H]7CCC[C@@H](O)C7)C(=O)C87CC7)CC6)c5)C4)ccc3C2=O)C(=O)N1 (stereo partly shown) and report
48

// repeat for CC1CCCC1N1C(=O)C2(CC2)c2cnc(NC3CCN(S(=O)(=O)N4CC5CN(C(=O)CCCCc6cccc7c6n(C)c(=O)n7C6CCC(=O)NC6=O)CC5C4)CC3)nc21 (stereo not shown) and report
39

* * *

- Test target: CDK9 (Homo sapiens, UniProt P50750)
- Construct: host or cells: HEK293-CDK9-Hibit
- Experiment: HiBit Assay Protocol for CDK9 (HIBIT protein quantification, degradation)
- Type: cell-based
- Run parameters: HEK293-CDK9-Hibit cells, compound treatment for 6 hours, ABS DC50
Property label: log10(DC50) (log10 of the value in nM)
Would you kindly interpret these values as log10 of DC50 expressed in nM?

Completed entries (count: 4):
Molecule	Test target	Property label	Endpoint result
CC1CCCC1N1C(=O)C2(CC2)c2cnc(NC3CCN(S(=O)(=O)N4CCC5(CCCN5C(=O)CCCCc5cccc6c5n(C)c(=O)n6C5CCC(=O)NC5=O)C4)CC3)nc21 (centres unmarked)	CDK9 (Homo sapiens, UniProt P50750)	log10(DC50)	0.30
CC1CCCC1N1C(=O)C2(CC2)c2cnc(NC3CCN(S(=O)(=O)N4CC5CN(C(=O)CCc6cccc7c6n(C)c(=O)n7C6CCC(=O)NC6=O)CC5C4)CC3)nc21 (centres unmarked)	CDK9 (Homo sapiens, UniProt P50750)	log10(DC50)	0.56
C[C@@H](c1cccc(S(=O)(=O)N2CCC(Nc3ncc4c(n3)N([C@@H]3CCC[C@@H](O)C3)C(=O)C43CC3)CC2)c1)N1CCC(c2ccc3c(N4CCC(=O)NC4=O)nn(C)c3c2)CC1 (single isomer, unassigned)	CDK9 (Homo sapiens, UniProt P50750)	log10(DC50)	3.34
CC1CCCC1N1C(=O)C2(CC2)c2cnc(NC3CCN(S(=O)(=O)N4CC5(CCN(C(=O)CCCc6cccc7c6n(C)c(=O)n7C6CCC(=O)NC6=O)CC5)C4)CC3)nc21 (centres unmarked)	CDK9 (Homo sapiens, UniProt P50750)	log10(DC50)	1.25

# evaluate next
// lookup log10(DC50) for CC1CCCC1N1C(=O)C2(CC2)c2cnc(NC3CCN(S(=O)(=O)N4CC5(CCN(C(=O)CCc6cccc7c6n(C)c(=O)n7C6CCC(=O)NC6=O)CC5)C4)CC3)nc21 (centres unmarked)
1.94

* * *

- Test target: CDK2 (Homo sapiens, UniProt P24941)
- Construct: host or cells: HEK293-CDK2-Hibit
- Experiment: HiBit Assay Protocol for CDK2 (HIBIT protein quantification, degradation)
- Assay type: cell-based
- Run parameters: HEK293-CDK2-Hibit cells, compound treatment for 6 hours
Property label: CDK2 HIBIT Protein Quantification Maximum

Completed entries (count: 8):
Compound	Endpoint result
CC1CCCC1N1C(=O)C2(CC2)c2cnc(NC3CCN(S(=O)(=O)N4CCN(C(=O)CCCCc5cccc6c5n(C)c(=O)n6C5CCC(=O)NC5=O)CC4)CC3)nc21 (centres unmarked)	59.2%
C[C@H](c1cc(S(=O)(=O)N2CC[C@H](Nc3ncc4c(n3)N([C@@H]3CCC[C@@H](O)C3)C(=O)C43CC3)[C@H](F)C2)ccc1F)N1CCN(c2ccc3c(N4CCC(=O)NC4=O)nn(C)c3c2)CC1	91%
CC1CCCC1N1C(=O)C2(CC2)c2cnc(NC3CCN(S(=O)(=O)N4CC5(CCCCN5C(=O)CCCCCc5ccc6c(c5)n(C)c(=O)n6C5CCC(=O)NC5=O)C4)CC3)nc21 (centres unmarked)	29%
CC1CN(Cc2cccc(S(=O)(=O)N3CCC(Nc4ncc5c(n4)N([C@@H]4CCC[C@@H](O)C4)C(=O)C54CC4)CC3)c2)CCC1c1ccc2c(N3CCC(=O)NC3=O)nn(C)c2c1 (some centres unmarked)	82%
CC1CCCC1N1C(=O)C2(CC2)c2cnc(NC3CCN(S(=O)(=O)N4CCN(C(=O)CCCc5ccc6c(c5)n(C)c(=O)n6C5CCC(=O)NC5=O)CC4)CC3)nc21 (centres unmarked)	37.9%
CC1CCCC1N1C(=O)C2(CC2)c2cnc(NC3CCN(S(=O)(=O)N4CC(N(C)C(=O)CCCCc5cccc6c5n(C)c(=O)n6C5CCC(=O)NC5=O)C4)CC3)nc21 (centres unmarked)	64%
Cn1nc(N2CCC(=O)NC2=O)c2ccc(C3CCN(Cc4cc(S(=O)(=O)N5CCC(Nc6ncc7c(n6)N([C@@H]6CCC[C@@H](O)C6)C(=O)C76CC6)CC5)ccc4F)CC3)cc21	84%
CC1CCCC1N1C(=O)C2(CC2)c2cnc(NC3CCN(S(=O)(=O)C4CCCN(C(=O)CCCCc5cccc6c5n(C)c(=O)n6C5CCC(=O)NC5=O)C4)CC3)nc21 (centres unmarked)	38%

// lookup CDK2 HIBIT Protein Quantification Maximum for CC1CN(Cc2cccc(S(=O)(=O)N3CCC(Nc4ncc5c(n4)N([C@@H]4CCC[C@@H](O)C4)C(=O)C54CC4)CC3)c2)CCN1c1ccc2c(N3CCC(=O)NC3=O)nn(C)c2c1 (some centres unmarked)
84%

// repeat for CC1CCCC1N1C(=O)C2(CC2)c2cnc(NC3CCN(S(=O)(=O)N4CCC5(CCN(CCCCCCCOc6cccc7c6n(C)c(=O)n7C6CCC(=O)NC6=O)C5)C4)CC3)nc21 (centres unmarked) and report
49%

// repeat for `Cc1ccc(S(=O)(=O)N2CCC(Nc3ncc4c(n3)N([C@@H]3CCC[C@@H](O)C3)C(=O)C43CC3)CC2)cc1CN1CCC(c2ccc3c(N4CCC(=O)NC4=O)nn(C)c3c2)CC1` and report
71%
